assay: HT1080 cell viability loss – fluorescence readout (AID 620); settings: at 10 µM, active compounds read high;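 further: cells exposed to compound overnight then 4 h with Alamar Blue; 0% = vehicle DMSO and 100% = killing control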
The whole screen tested about 87,000 compounds, of which about 360 (0.41%) were called active. The full list was thinned out, with actives kept by preference.
The threshold is inclusive: cytotoxicity of exactly 50% counts as Y; values below receive N.

compound	classification
CCOc1cc(/C=N/n2cnnc2)cc(Br)c1O	N
CCOc1cc(/C=N/n2cnnc2)c(Br)cc1O	Y
O=C(CSc1nnc(COc2ccc(Cl)cc2)o1)N1CCN(c2ccccc2)CC1	N
CC(SC(=S)N1CCOCC1)C(=O)O (stereo unspecified)	N
O=C(CSc1nnc(COc2ccc(F)cc2)o1)N1c2ccccc2CCc2ccccc21	N
Cc1cc(N)n(-c2ncnc3scc(-c4ccc(Cl)cc4)c23)n1	N
O=C(Nc1cccc(NC(=O)c2cccnc2Cl)c1)c1ccco1	N
COc1cccc2c1C(=O)c1c(O)c3c(c(O)c1C2=O)C[C@@](O)(C(=O)CO)C[C@@H]3O[C@H]1C[C@H](N)[C@H](O)[C@H](C)O1	Y
Cc1cccc(NS(=O)(=O)Cc2ccccc2)n1	N
O=C(CSc1nnc(COc2ccc(Cl)cc2)o1)N1c2ccccc2CCc2ccccc21	Y

###

experiment: HT1080 cell viability loss – fluorescence readout (AID 620); settings: at 10 µM
Screen size: about 87,000 compounds; about 360 (0.41%) were called active. Rule as the data show it: active = cytotoxicity above about 50%; inactive = the rest. For the sample, actives were picked, then their nearest neighbours and some compounds at random.
Outcome codes: yes (active), no (inactive)

compound	classification
CC(=O)N1c2ccccc2N(Cc2ccc(C)cc2C)C(=O)C1(C)C	yes
O=C(NCc1ccco1)C(C(=O)c1ccc(F)cc1)n1ccccc1=O (stereo unspecified)	no
CCc1c(C)nc2ncnn2c1NCCc1ccc(OC)cc1	yes
CCN(CC)C(=O)CN(C#N)c1nc(OC)nc(N(C)C)n1	no
Cc1ccc(C)c(CN2C(=O)C3(OCCCO3)c3ccccc32)c1	no
O=S(=O)(c1ccccc1C(F)(F)F)N1CCC(n2cnc3ccccc32)CC1	no

###

test: HT1080 cell viability loss – fluorescence readout (AID 620); details: at 10 µM, active compounds read high;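 further: cells exposed to compound overnight then 4 h with Alamar Blue; 0% = vehicle DMSO and 100% = killing control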
The whole screen tested about 87,000 compounds, of which about 360 (0.41%) were called active. The sample holds actives, similar compounds and a random draw of the others, so the mix is not that of the screen.
Form field: cytotoxicity (one value per entry).
assayEndpoint: cytotoxicity (%)

compound	recordedMeasurement
COc1ccc(NC(=O)c2oc3ccccc3c2NC(=O)COc2ccccc2OC)c(OC)c1	-4.5
CCOc1ccc(NC(=O)N2CCC(NC(=O)c3ccco3)CC2)cc1	4.5
COc1ccc(OCC(=O)Nc2nc3ccccc3[nH]2)cc1	-8.8
Cc1cccc(N(C)C(=O)COc2cc(=O)n(C)c3ccccc23)c1	2
N#Cc1cn(CCCOc2ccccc2)c2ccccc12	24.2
Cc1cc(NC(=O)C2CC(=O)OC2c2ccccc2)no1 (configuration not stated)	10.6
CCOC(=O)c1c(C)[nH]c2cc(Br)c(OC)cc12	-9
CC(C)c1cc(Nc2cccc(O)c2)cc(C(C)C)c1O	2
COc1ccccc1NC(=O)N(Cc1ccco1)Cc1cc2cccc(C)c2[nH]c1=O	-8
COc1cc(CC(=O)Oc2ccc3c(c2)OCO3)cc(OC)c1OC	2.2
O=C(Nc1nc(-c2cc(Cl)sc2Cl)cs1)c1cccs1	-0.1
Cc1ccc2[nH]c(=O)c(-c3nc4cc(C)ccn4c3NCc3ccco3)cc2c1	-1.5
CCOC(=O)N1CCN(C(=O)c2ccccc2Oc2ccccc2)CC1	3.5
O=C(Nc1ccc(NC(=O)C2CCCCC2)nc1)c1ccco1	-0.2
C/C=C(\CS(=O)(=O)c1ccccc1)S(=O)(=O)c1ccccc1	-9.9
COc1ccc(CNC(=O)CSc2nc(-c3ccccc3)cc(-c3cccs3)c2C#N)cc1	-13.6
CC1(C)Cc2nc3sc4c(=O)n(CC(=O)NCc5ccco5)cnc4c3cc2CO1	15.9
O=C(Nc1cccc(-c2cc3ccccc3oc2=O)c1)c1ccc(Br)o1	-1.6
Cc1cccc(Nc2nn3c(=O)c4ccccc4nc3s2)c1	6.1
CCC1=C2CC[C@H]3C(=O)N(CC)C(=O)[C@H]3[C@H]2[C@@]2(Cc3ccccc3)C(=O)N(CC3CC3)C(=O)N2C1=O	2.7
COc1ccc(S(=O)(=O)Nc2cc3c(C(C)=O)c(C)oc3c3ccccc23)cc1	62.6
O=c1[nH]c(=O)n([C@H]2C[C@H](O)[C@@H](CO)O2)cc1C(F)(F)F	4.2
CCCSc1ccc2nc(NC(=O)OC)[nH]c2c1	40
O=C(NC1=NCCS1)c1ccncc1	-1.5
CCOc1ccc(-c2cc(C(=O)O)c3ccccc3n2)cc1	23.3
COc1ccccc1CNC(=O)CCS(=O)(=O)c1cccs1	-8.3
COc1cc(CC(=O)NCc2ccc3c(c2)OCO3)cc(OC)c1OC	3.1
CSc1nnc(-c2ccccc2)o1	-3.8
CCOC(=O)c1[nH]c(C)c(C(=O)NCc2ccc(C)cc2)c1C	-8.9
COc1ccc2nc(NCCO)[nH]c2c1	3.7
CCOc1ccc(Br)cc1S(=O)(=O)Nc1ccccc1N1CCOCC1	4.5
CCOC(=O)c1[nH]c(C)c(C(=O)c2cc(F)ccc2F)c1C	57.2
CCOc1ccc(-c2cc(C(=O)N3CCN(c4ccccn4)CC3)c3ccccc3n2)cc1	52.4
C=CCOc1ccc2nc(NC(=O)OC)[nH]c2c1	62.3
O=C(c1ccccc1-c1ccccc1)N1CCCC1	7.3
COc1cccc(CNC(=O)c2cc3ccccn3n2)c1	0
CCOc1ccc(OCc2ccc(C(=O)Nc3cccnc3)o2)cc1	-3.1
COc1ccc2nc(-n3c(C)ccc3C)sc2c1	-1.1
CCOc1cc(N2CCOCC2)c(OCC)cc1NC(=O)CCS(=O)(=O)c1ccc(Cl)cc1	6.9
CCCOc1ccc2nc(NC(=O)OC)[nH]c2c1	64.1
O=C(Nc1ccc2c(c1)OCO2)OCc1ccccc1	13.2
COC(=O)c1c(C)oc2c1cc(NS(=O)(=O)c1cccs1)c1ccccc12	0.6
Cc1cccc(NC(=S)N2N=CCC2c2ccccc2)c1 (configuration not stated)	-1.4
CC(=O)N1[C@H](Cc2ccccc2)C=C[C@]1(C)C(=O)NCc1ccc(C)o1	-2.9
CCN(CC)c1ccc2cc(-c3nc4ccccc4n3C)c(=O)oc2c1	62
CC(=O)Oc1ccc2cc(-c3nc4ccccc4n3C)c(=O)oc2c1	-4.4
CSC1CCCCC1(O)CSc1nc2ccccc2o1 (configuration not stated)	-0.9

###

test: HT1080 cell viability loss – fluorescence readout (AID 620); conditions: at 10 µM;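 further: cells exposed to compound overnight then 4 h with Alamar Blue; 0% = vehicle DMSO and 100% = killing control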
Out of some 87,000 compounds screened, about 360 (0.41%) were called active. No stated cut-off is given here; in the data, active means cytotoxicity above about 50%; inactive means the rest. The list comes from a sample in which actives are over-represented; it also holds close analogues and randomly drawn compounds.
Outcome codes: active, inactive

compound	classification
CCOc1cc(C(c2c(C)[nH][nH]c2=O)c2c(C)[nH][nH]c2=O)ccc1OS(=O)(=O)c1ccc(C)cc1	inactive
COc1ccccc1C(=O)N1CCN(c2cccc(C(F)(F)F)c2)CC1	active
C=CCOC(=O)c1[nH]c2c(c1C)C(=O)CC(c1ccco1)C2 (stereo unspecified)	active
CCn1c(SCC(=O)c2cc(C)n(C)c2C)nnc1-c1ccccc1	inactive
CC(C)CCn1c(N)c(S(=O)(=O)c2cccs2)c2nc3ccccc3nc21	active
CCn1c(SCC(=O)c2cc(C)n(-c3ccc(C(=O)OC)cc3)c2C)nnc1-c1cccnc1	active
O=C(O)c1ccccc1C(=O)N1CCN(c2cccc(Cl)c2)CC1	inactive
CCOC(=O)C1CCCN(Cc2ccccc2OCC)C1 (stereo unspecified)	inactive
O=S(=O)(Nc1ccc2c(c1)OCO2)c1ccc(Br)s1	inactive
Nc1ccc2nc(-c3ccccn3)[nH]c2c1	inactive
COCCn1c(N)c(S(=O)(=O)c2cccs2)c2nc3ccccc3nc21	inactive

###

assay: HT1080 cell viability loss – fluorescence readout (AID 620); settings: at 10 µM;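 further: cells exposed to compound overnight then 4 h with Alamar Blue; 0% = vehicle DMSO and 100% = killing control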
Out of some 87,000 compounds screened, about 360 (0.41%) were called active. Cut-off read from the data, not from the text of the source: active = cytotoxicity above about 50%; inactive = the rest. Many of the other results were omitted from the sample, so actives are more common in it than they were.
Outcome codes: active, inactive

molecule	classification
Cc1oc(-c2ccccc2F)nc1CN1CCC(C(=O)NCc2cccs2)CC1	inactive
CN(C)CCCNC(CC(=O)Nc1ccc(Cl)cc1)C(=O)O (centres undefined)	inactive
CN(C)c1ccc2c(c1)OC(N)=C(C#N)C2c1cccc(F)c1 (centres undefined)	active
COc1ccc(C2C(C#N)=C(N)Oc3cc(O)ccc32)cc1OC (centres undefined)	inactive
O=C(CCc1nc(-c2ccccc2)no1)NCc1ccco1	inactive
N#CC1=C(N)Oc2cc3ccccc3cc2C1c1cccnc1 (centres undefined)	inactive
CCOC(=O)CNC(=O)CSc1nnc(Cn2c(=O)sc3ccccc32)n1C	inactive
CC(C)Cc1cc(C(=O)Nc2cc(Cl)ccc2Cl)no1	inactive
COc1ccc(C(=O)c2ccc(Cl)cc2)c2ccccc12	inactive
COc1cc(C2C(C#N)=C(N)Oc3cc(N(C)C)ccc32)cc2c1OCO2 (centres undefined)	active
COC1(OC)N=C(N)C2(C#N)C(c3cccc(Oc4ccccc4)c3)C12C#N (centres undefined)	inactive
COc1cc(C2C(C#N)=C(N)Oc3cc(O)ccc32)cc(OC)c1OC (centres undefined)	active
O=C(OC1CCS(=O)(=O)c2sccc21)c1ccccc1 (centres undefined)	inactive
COc1ccc(NC(=O)Nc2ncccc2C)cc1	inactive
O=C1NC(c2ccccc2)C(C(=O)c2cccs2)=C1O (centres undefined)	inactive
COc1ccccc1NC(=O)Cn1nc(C(F)(F)F)c2c1CCCC2	inactive
COc1cc(C2C(C#N)=C(N)Oc3cc(C)oc(=O)c32)cc2c1OCO2 (centres undefined)	inactive
CCN(CC)c1ccc2c(c1)OC(N)=C(C#N)C2c1cccnc1 (centres undefined)	active
CC(=O)Cc1nsc(NC(=O)C2Cc3ccccc3C(=O)O2)n1 (centres undefined)	inactive
COc1ccc(-n2nnc3c(=O)n(C/C=C/c4ccccc4)cnc32)cc1	inactive
Cn1c(=NC(=O)CN2C(=O)C3CC=CCC3C2=O)sc2ccccc21 (centres undefined)	inactive
COc1ccccc1C(=O)NC1CCCCCCC1	inactive
N#CC1=C(N)Oc2cc(N)ccc2C1c1ccc(F)cc1 (centres undefined)	inactive
COc1ccc(C(=O)c2ccc(OC)c3cccc(O)c23)cc1OC	inactive
